Target Under Test: dopamine D-2 receptors (Rattus norvegicus, UniProt P61169)
Construct: striatal tissue is dissected and weighed
Sequence (P61169 whole entry): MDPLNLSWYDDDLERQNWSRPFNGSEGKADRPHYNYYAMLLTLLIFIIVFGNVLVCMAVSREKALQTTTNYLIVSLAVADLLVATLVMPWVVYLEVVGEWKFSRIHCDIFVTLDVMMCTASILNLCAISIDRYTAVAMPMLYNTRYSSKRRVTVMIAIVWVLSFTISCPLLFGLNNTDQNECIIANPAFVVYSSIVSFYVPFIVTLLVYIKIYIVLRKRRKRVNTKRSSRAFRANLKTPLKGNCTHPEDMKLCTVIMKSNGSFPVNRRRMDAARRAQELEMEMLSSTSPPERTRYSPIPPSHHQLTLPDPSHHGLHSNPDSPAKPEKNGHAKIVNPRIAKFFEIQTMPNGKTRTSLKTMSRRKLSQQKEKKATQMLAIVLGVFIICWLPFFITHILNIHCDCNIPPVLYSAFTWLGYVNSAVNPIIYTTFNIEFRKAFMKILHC
Measurement Description: Inhibition of 3H-spiperone binding to dopamine D-2 receptors in rat corpus striatum in vitro
Cond: 3H-spiperone 0.5 nM, rat corpus striatum, 37° C., 10 min; read-out: Receptor Binding; IC50 DA D-2 3H-Spi
Give measured IC50 for each item. Keep answers brief.

Cc1ccc2c(c1)[C@@H](c1ccc(F)cc1)C[C@@H]2N1CCN(CCO)CC1 (relative stereo): 1000 nM
CC(C)N1CCN(CCN2CCN([C@@H]3C[C@@H](c4ccc(F)cc4)c4cc(Br)ccc43)CC2)C1=O (relative stereo): 240 nM
O=C1NCCN1CCN1CCN([C@@H]2C[C@@H](c3ccc(F)cc3)c3ccc(C(F)(F)F)cc32)CC1 (relative stereo) [Compound 39, reference compound]: 21 nM

Proceeding to the next molecule to report its IC50.
[in] Bench note: what IC50 did O=C1NCCN1CCN1CCN([C@H]2C[C@H](c3ccc(F)cc3)c3cc(C(F)(F)F)ccc32)CC1 (relative stereo) [Compound 1] show?
[out] 760 nM
